biological target: T1, IL2R(bg)-Fc construct (human IL2R beta extracellular domain fused to Fc(knob) with avi tag, human IL2R gamma … (human, biotin on the C-terminal avi tag (co-expressed BirA))); test: ELISA: biotinylated IL2R(bg)-Fc coated on neutravidin plates, clone in bacterial supernatant bound at pH 6, washing and 30 min incubation at pH 6.0, 6.5, 7.0 or 7.4, detection with anti-Flag/HRP; absorption at pH 6 set to 1
T1 construct: Knob-into-hole Fc heterodimer; also called IL2Rβγ; human heterodimeric IL-2 receptor beta/gamma
T1 sequence (chain, as listed by the source limits assumed, chain 1 of 2): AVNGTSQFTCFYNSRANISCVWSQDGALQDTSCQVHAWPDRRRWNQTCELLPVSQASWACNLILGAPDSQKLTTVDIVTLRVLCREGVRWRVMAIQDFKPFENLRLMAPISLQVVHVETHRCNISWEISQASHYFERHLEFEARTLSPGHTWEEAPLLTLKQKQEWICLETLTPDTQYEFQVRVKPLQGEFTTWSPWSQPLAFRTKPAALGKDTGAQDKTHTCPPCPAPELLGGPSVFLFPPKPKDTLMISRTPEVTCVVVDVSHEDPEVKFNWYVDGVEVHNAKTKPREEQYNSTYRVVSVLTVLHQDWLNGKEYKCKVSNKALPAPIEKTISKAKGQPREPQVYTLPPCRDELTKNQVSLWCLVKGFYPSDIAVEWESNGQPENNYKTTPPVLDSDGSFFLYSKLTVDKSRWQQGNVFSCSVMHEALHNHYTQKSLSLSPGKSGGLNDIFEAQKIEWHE
T1 sequence (chain, as listed by the source limits assumed, chain 2 of 2): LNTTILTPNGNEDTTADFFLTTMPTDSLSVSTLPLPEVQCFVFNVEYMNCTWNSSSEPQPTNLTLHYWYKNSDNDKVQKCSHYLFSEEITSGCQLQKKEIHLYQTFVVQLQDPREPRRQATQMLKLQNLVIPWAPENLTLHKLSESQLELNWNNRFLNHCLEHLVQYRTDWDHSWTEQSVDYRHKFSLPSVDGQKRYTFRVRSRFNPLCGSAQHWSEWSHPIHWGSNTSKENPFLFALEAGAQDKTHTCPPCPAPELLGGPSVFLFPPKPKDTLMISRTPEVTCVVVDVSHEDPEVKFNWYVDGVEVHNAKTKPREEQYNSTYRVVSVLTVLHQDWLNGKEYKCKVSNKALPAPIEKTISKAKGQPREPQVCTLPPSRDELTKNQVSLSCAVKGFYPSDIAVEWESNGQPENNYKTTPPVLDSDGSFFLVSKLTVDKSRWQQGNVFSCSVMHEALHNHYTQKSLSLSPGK
METRIC NAME: binding result

• ExplResOnc.P173.0239 (ligand, not shown: large carriers, as m20) APASSSTKKTELQLQELLLDLEEILNGINNYKNPKLTRMLTAKFAMPKKATELKHLQCLEEELKPLEEVLNGAQSKNFHLHPRELIENINVIVLELKGSETTFMCEYADETATIVEFLNHWITFAQSIIETLD = binds
• ExplResOnc.P174.0173 (ligand, not shown: large carriers, as m20) APASSSTKKTETQLQELLDDLHMILNGINNYKNPKLTRMLTAKFAMPKKATELKHLQCLEEELKPLEEVLNGAQSKNFHLDPRELIENINVIVLELKGSETTFMCEYADETATIVEFLNHWITFAQSIIETLE = binds
• ExplResOnc.P172.0344 (ligand, not shown: large carriers, as m20) APASSYTKKTQERLEQLLLDLEQILNGINNYKNPKLTRMLTAKFAMPKKATELKHLQCLEEELKPLEEVLNGAQSKNFHLNPRELIENINVIVLELKGSETTFMCEYADETATIVEFLNHWITFAQSIIETLD = binds
